In this section, each of the compounds is paired with its reported MRT last.
method description: Pharmacokinetics of steroidal alkaloids after single oral FTB dose in normal and DNBS-induced colitis rats
Format: in vivo, Sprague–Dawley rats
stated conditions: male, Sprague-Dawley, rat, plasma, po, 1 g/kg, normal rats; oral FTB 1 g/kg single dose; mean ± SD, n = 5
Just the number in h, nothing appended.

Reference set, count: 3
| compound | unit annotation | MRT last |
| --- | --- | --- |
| C[C@H]1CC[C@@H]2N(C1)C[C@H]1[C@@H]3C[C@H]4[C@@H](CC(=O)[C@H]5C[C@@H](O)CC[C@@]54C)[C@@H]3CC[C@H]1[C@]2(C)O | h | 5.4 |
| CC1=C2C[C@H]3[C@@H](CC(=O)C4C[C@@H](O)CC[C@@]43C)[C@@H]2CC[C@]12OC1C[C@H](C)CN[C@H]1[C@H]2C (stereo partly shown) | h | 5 |
| C[C@H]1CC[C@@H]2N(C1)C[C@H]1[C@@H]3C[C@H]4[C@@H](CC(=O)[C@H]5C[C@@H](O)CC[C@@]54C)[C@@H]3CC[C@@H]1[C@]2(C)O | h | 4.7 |

Okay, next one:
Task: State, in one line, measured MRT last of C[C@H]1CC[C@@H]2N(C1)C[C@H]1[C@@H]3C[C@H]4[C@@H](C[C@H](O)[C@H]5C[C@@H](O)CC[C@@]54C)[C@@H]3CC[C@@H]1[C@]2(C)O
Result: 3.7

====

Listed below: Tmax values for each entry.
method description: Pharmacokinetics of steroidal alkaloids after single oral FTB dose in normal and DNBS-induced colitis rats
Assay type: in vivo, Sprague–Dawley rats
stated conditions: male, Sprague-Dawley, rat, plasma, po, 1 g/kg, DNBS-treated (colitis) rats; oral FTB 1 g/kg single dose; mean ± SD, n = 5
Provide only the numeric value, understood in h.

Known results for molecules:
| molecule | Tmax (h) |
| --- | --- |
| C[C@H]1CC[C@@H]2N(C1)C[C@H]1[C@@H]3C[C@H]4[C@@H](C[C@H](O)[C@H]5C[C@@H](O)CC[C@@]54C)[C@@H]3CC[C@@H]1[C@]2(C)O [peimine] | 1 |
| C[C@H]1CC[C@@H]2N(C1)C[C@H]1[C@@H]3C[C@H]4[C@@H](CC(=O)[C@H]5C[C@@H](O)CC[C@@]54C)[C@@H]3CC[C@H]1[C@]2(C)O [sipeimine] | 2.4 |
| CC1=C2C[C@H]3[C@@H](CC(=O)C4C[C@@H](O)CC[C@@]43C)[C@@H]2CC[C@]12OC1C[C@H](C)CN[C@H]1[C@H]2C (stereo partly shown) [peimisine] | 1.5 |

Next up:
Task: # return recorded Tmax for input C[C@H]1CC[C@@H]2N(C1)C[C@H]1[C@@H]3C[C@H]4[C@@H](CC(=O)[C@H]5C[C@@H](O)CC[C@@]54C)[C@@H]3CC[C@@H]1[C@]2(C)O [peiminine]
Result: 1.3

====

method description: Pharmacokinetics of steroidal alkaloids after single oral FTB dose in normal and DNBS-induced colitis rats
Type: in vivo, Sprague–Dawley rats
stated conditions: DNBS-treated (colitis) rats; oral FTB 1 g/kg single dose; plasma; mean ± SD, n = 5
outcome measure: AUC_%Extrap_obs (%)
// return numeric value only (unit: %, not printed)

Record excerpt, results attached:
| compound | unit annotation | AUC_%Extrap_obs |
| --- | --- | --- |
| CC1=C2C[C@H]3[C@@H](CC(=O)C4C[C@@H](O)CC[C@@]43C)[C@@H]2CC[C@]12OC1C[C@H](C)CN[C@H]1[C@H]2C (stereo partly shown) | % | 8.9 |
| C[C@H]1CC[C@@H]2N(C1)C[C@H]1[C@@H]3C[C@H]4[C@@H](CC(=O)[C@H]5C[C@@H](O)CC[C@@]54C)[C@@H]3CC[C@H]1[C@]2(C)O | % | 11.0 |

Task: Quote AUC_%Extrap_obs reported for C[C@H]1CC[C@@H]2N(C1)C[C@H]1[C@@H]3C[C@H]4[C@@H](C[C@H](O)[C@H]5C[C@@H](O)CC[C@@]54C)[C@@H]3CC[C@@H]1[C@]2(C)O please.
Result: 6.6

Task: Give me measured AUC_%Extrap_obs, please, for this compound: C[C@H]1CC[C@@H]2N(C1)C[C@H]1[C@@H]3C[C@H]4[C@@H](CC(=O)[C@H]5C[C@@H](O)CC[C@@]54C)[C@@H]3CC[C@@H]1[C@]2(C)O
Result: 3.3

====

method description: Pharmacokinetics of steroidal alkaloids after single oral FTB dose in normal and DNBS-induced colitis rats
Assay type: in vivo, Sprague–Dawley rats
stated conditions: oral FTB 1 g/kg; DNBS vs normal rats
outcome measure: systemic exposure under colitis condition compared with normal state

| smiles notation | result |
| --- | --- |
| C[C@H]1CC[C@@H]2N(C1)C[C@H]1[C@@H]3C[C@H]4[C@@H](CC(=O)[C@H]5C[C@@H](O)CC[C@@]54C)[C@@H]3CC[C@H]1[C@]2(C)O | no observable difference |
| C[C@H]1CC[C@@H]2N(C1)C[C@H]1[C@@H]3C[C@H]4[C@@H](CC(=O)[C@H]5C[C@@H](O)CC[C@@]54C)[C@@H]3CC[C@@H]1[C@]2(C)O | no observable difference |
| C[C@H]1CC[C@@H]2N(C1)C[C@H]1[C@@H]3C[C@H]4[C@@H](C[C@H](O)[C@H]5C[C@@H](O)CC[C@@]54C)[C@@H]3CC[C@@H]1[C@]2(C)O | no observable difference |

====

# maps each entry to its AUClast
method description: Pharmacokinetics of steroidal alkaloids after single oral FTB dose in normal and DNBS-induced colitis rats
Assay type: in vivo, Sprague–Dawley rats
stated conditions: normal rats; oral FTB 1 g/kg single dose; plasma; mean ± SD, n = 5
Value expressed in h∗ng/mL; do not type the unit.

Examples with answers:
| molecule | AUClast (h∗ng/mL) |
| --- | --- |
| C[C@H]1CC[C@@H]2N(C1)C[C@H]1[C@@H]3C[C@H]4[C@@H](CC(=O)[C@H]5C[C@@H](O)CC[C@@]54C)[C@@H]3CC[C@@H]1[C@]2(C)O | 1172.4 |
| C[C@H]1CC[C@@H]2N(C1)C[C@H]1[C@@H]3C[C@H]4[C@@H](CC(=O)[C@H]5C[C@@H](O)CC[C@@]54C)[C@@H]3CC[C@H]1[C@]2(C)O | 463.5 |

Task: Tell me measured AUClast for C[C@H]1CC[C@@H]2N(C1)C[C@H]1[C@@H]3C[C@H]4[C@@H](C[C@H](O)[C@H]5C[C@@H](O)CC[C@@]54C)[C@@H]3CC[C@@H]1[C@]2(C)O please.
Result: 1311.8

Task: Fill in AUClast for record CC1=C2C[C@H]3[C@@H](CC(=O)C4C[C@@H](O)CC[C@@]43C)[C@@H]2CC[C@]12OC1C[C@H](C)CN[C@H]1[C@H]2C (stereo partly shown)
Result: 3959.3

====

method description: Pharmacokinetics of steroidal alkaloids after single oral FTB dose in normal and DNBS-induced colitis rats
Type: in vivo, Sprague–Dawley rats
stated conditions: normal rats; oral FTB 1 g/kg single dose; plasma; mean ± SD, n = 5
Procedure: Ten-week-old male Sprague–Dawley rats were obtained from Samtaco (Osan, Republic of Korea), quarantined, and acclimatized for one week before the experiments. […] Plasma concentrations were measured using UPLC-MS/MS (Agilent Technologies Inc.) in the same manner as described above. […] The pharmacokinetic parameters were calculated based on a non-compartmental model using Monolix 2023R1 (Lixoft SAS, Simulations Plus Inc., Lancaster, CA, USA). […]
outcome measure: AUC_%Extrap_obs (%)
// note: answer is a bare numeric in %

| molecule | AUC_%Extrap_obs, % |
| --- | --- |
| CC1=C2C[C@H]3[C@@H](CC(=O)C4C[C@@H](O)CC[C@@]43C)[C@@H]2CC[C@]12OC1C[C@H](C)CN[C@H]1[C@H]2C (stereo partly shown) [peimisine] | 5.3 |
| C[C@H]1CC[C@@H]2N(C1)C[C@H]1[C@@H]3C[C@H]4[C@@H](C[C@H](O)[C@H]5C[C@@H](O)CC[C@@]54C)[C@@H]3CC[C@@H]1[C@]2(C)O [peimine] | 6.7 |
| C[C@H]1CC[C@@H]2N(C1)C[C@H]1[C@@H]3C[C@H]4[C@@H](CC(=O)[C@H]5C[C@@H](O)CC[C@@]54C)[C@@H]3CC[C@H]1[C@]2(C)O [sipeimine] | 10.4 |

Field: next molecule
Task: Give a short answer stating reported AUC_%Extrap_obs for C[C@H]1CC[C@@H]2N(C1)C[C@H]1[C@@H]3C[C@H]4[C@@H](CC(=O)[C@H]5C[C@@H](O)CC[C@@]54C)[C@@H]3CC[C@@H]1[C@]2(C)O [peiminine] .
Result: 14.5

====

method description: Pharmacokinetics of steroidal alkaloids after single oral FTB dose in normal and DNBS-induced colitis rats
Format: in vivo, Sprague–Dawley rats
stated conditions: DNBS-treated (colitis) rats; oral FTB 1 g/kg single dose; plasma; mean ± SD, n = 5
Reported AUMClast is given for each of the following compounds.
Reply numerically in h∗h∗ng/mL, unit not repeated.

Answered cases to consult:
| smiles notation | unit annotation | AUMClast |
| --- | --- | --- |
| C[C@H]1CC[C@@H]2N(C1)C[C@H]1[C@@H]3C[C@H]4[C@@H](C[C@H](O)[C@H]5C[C@@H](O)CC[C@@]54C)[C@@H]3CC[C@@H]1[C@]2(C)O | h∗h∗ng/mL | 2819.7 |
| C[C@H]1CC[C@@H]2N(C1)C[C@H]1[C@@H]3C[C@H]4[C@@H](CC(=O)[C@H]5C[C@@H](O)CC[C@@]54C)[C@@H]3CC[C@@H]1[C@]2(C)O | h∗h∗ng/mL | 3149.7 |

Task: For the compound C[C@H]1CC[C@@H]2N(C1)C[C@H]1[C@@H]3C[C@H]4[C@@H](CC(=O)[C@H]5C[C@@H](O)CC[C@@]54C)[C@@H]3CC[C@H]1[C@]2(C)O , report AUMClast.
Result: 3588.3
